Consider the following compounds; for each one, report its Ki.
Molecular target: single-chain tethered dimer of HIV protease (Human immunodeficiency virus 1)
Assay: biochemical
Type: biochemical
Parameters: fused on or other part: A second copy of the same protease unit is joined to the first by a short peptide tether, giving one polypeptide
Settings: Table 2d; class symbols; read-out: HPLC K1

Exercise: Fill in the blank: the reported Ki of O=C1N(CC2CC2)C(Cc2ccccc2)C(O)C(O)C(Cc2ccccc2)N1CC1CC1 (stereo not drawn) [Example 13o] is ____.
Solution: > 1000 nM

Exercise: Okay, and O=C1N(Cc2cnccc2O)C(Cc2ccccc2)C(O)C(O)C(Cc2ccccc2)N1Cc1cnccc1O (stereo not drawn) [Example 14C] ?
Solution: 10 to 1000 nM

Exercise: Another compound: Cc1cncc(O)c1CN1C(=O)N(Cc2c(C)cncc2O)C(Cc2ccccc2)C(O)C(O)C1Cc1ccccc1 (stereo not drawn) [Example 14K]
Solution: 10 to 1000 nM

Exercise: // repeat for CS(=O)(=O)CCCCCN1C(=O)N(CCCCCO)C(Cc2ccccc2)C(O)C(O)C1Cc1ccccc1 (stereo not drawn) [15VT] and report
Solution: < 10 nM

Exercise: Also O=C1NC(Cc2ccccc2)C(O)C(O)C(Cc2ccccc2)N1CC1CC1c1ccccc1 (stereo not drawn) [Example 14I] ?
Solution: 10 to 1000 nM

Exercise: Try CC(C)(C)OC(=O)c1ccc(CN2C(=O)N(Cc3ccc(C(=O)OC(C)(C)C)o3)C(Cc3ccccc3)C(O)C(O)C2Cc2ccccc2)o1 (stereo not drawn) [Example 13W] next.
Solution: > 1000 nM
